System: T-47D breast
Assay: NCI tumour cell line growth inhibition, 48 h
reportedEndpoint: TGI

[
  {
    "compound": "CCCCCCCCCCCCCCCCCCNc1ccn(C2OC(COP(=O)(O)OCC3CCC(n4cnc5c(=O)[nH]cnc54)O3)C(O)C2O)c(=O)n1 (stereo not drawn)",
    "targetSystem": "T-47D breast",
    "TGI": "> 100 µM"
  },
  {
    "compound": "CN(C)c1ccc(/C=C2\\N=C(NN)NC2=O)cc1",
    "targetSystem": "T-47D breast",
    "TGI": "> 100 µM"
  },
  {
    "compound": "COc1cc(OC)c2c(O)c3c(cc2c1)CC(C)(C)CC3=O",
    "targetSystem": "T-47D breast",
    "TGI": "> 100 µM"
  },
  {
    "compound": "O=[N+]([O-])/C(C(Cl)=C(Cl)Cl)=C1\\NCCO1",
    "targetSystem": "T-47D breast",
    "TGI": "> 100 µM"
  },
  {
    "compound": "CCOc1cc(NC(C)=O)ccc1C(=O)NN1C(=O)C(Oc2ccccc2)C1c1ccccc1 (stereo not drawn)",
    "targetSystem": "T-47D breast",
    "TGI": "> 100 µM"
  },
  {
    "compound": "Cc1ccc(N=Nc2c(O)ccc3cc(S(=O)(=O)O)ccc23)c(C)c1",
    "targetSystem": "T-47D breast",
    "TGI": "> 100 µM"
  }
]

# lookup: TGI of CN1C(=S)C(c2ccccc2)Sc2ccccc21 (stereo not drawn)
> 100 µM

# lookup: TGI of Cc1ccsc1/C=N/Nc1cc(C)c2cccc(C)c2n1
> 100 µM

---

Listed below: TGI values for each entry.
Test system: SW-620 colon
Assay: NCI tumour cell line growth inhibition, 48 h

# annotated cases, reported TGI shown
[
  {
    "molecule": "Cc1c(C(=O)N2CCN(c3ccc([N+](=O)[O-])cc3)CC2)[n+](=O)c2cc(Cl)c(Cl)cc2n1[O-]",
    "TGI": "> 100 µM"
  },
  {
    "molecule": "CC(C)CCC[C@@H](C)[C@H]1CCC2C3CC=C4C[C@@H](Oc5c6ccccc6nc6ccccc56)CCC4C3CCC21 (stereo partly drawn)",
    "TGI": "> 50 µM"
  }
]

Alright, here's another molecule for you.
# lookup: TGI of CCCCCC(=O)c1ccc2[nH]c3c(C)cc([N+](=O)[O-])c(C)c3c2c1
> 100 µM

---

Tested on: T-47D breast
Assay: NCI tumour cell line growth inhibition, 48 h
reportedEndpoint: TGI

# annotated cases, reported TGI shown
[
  {
    "compound": "CN(C(=O)Cc1ccc(Cl)c(Cl)c1)[C@H]1CCCC[C@@H]1[N+]1(C)CCCC1",
    "endpointValue": "> 100 µM"
  },
  {
    "compound": "CC(C)c1ccc(/C(C(=O)O)=C(\\O)C(=O)O)cc1",
    "endpointValue": "> 100 µM"
  }
]

Alright, here's another compound for you.
# lookup: TGI of CC(C)CCC[C@@H](C)[C@H]1CCC2C3CC=C4C[C@@H](Oc5c6ccccc6nc6ccccc56)CCC4C3CCC21 (stereo partly drawn)
> 50 µM

---

Test system: SK-MEL-28 melanoma
Assay: NCI tumour cell line growth inhibition, 48 h
reportedEndpoint: TGI

# annotated cases, reported TGI shown
[
  {
    "compound": "O=c1[nH]nc(-c2ccccc2)n1/N=C/c1c[nH]c2ccccc12",
    "targetSystem": "SK-MEL-28 melanoma",
    "TGI": "> 100 µM"
  },
  {
    "compound": "O=C1CC(=O)c2c(O)cc(O)c(c2O)-c2c(ccc(O)c2O)C2=CC(=O)c3c(O)cc(O)c(c3O2)-c2c1ccc(O)c2O (tested in a mixture with another compound)",
    "targetSystem": "SK-MEL-28 melanoma",
    "TGI": "> 50 µM"
  },
  {
    "compound": "COc1cccc(-c2ccc3c4c2O[C@H]2c5[nH]c6ccccc6c5C[C@@]5(O)[C@@H](C3)N(CC3CC3)CC[C@]425)c1",
    "targetSystem": "SK-MEL-28 melanoma",
    "TGI": "> 23.1 µM"
  },
  {
    "compound": "COc1ccc(/C=C/c2nc(NCCCN(C)C)c3ccccc3n2)cc1",
    "targetSystem": "SK-MEL-28 melanoma",
    "TGI": "9 µM"
  },
  {
    "compound": "CC(=O)O[C@H]1CC[C@@]2(C)C(=CC[C@H]3C4=CC=C(C(C)=O)[C@@]4(C)CCC32)C1 (some centres not stated)",
    "targetSystem": "SK-MEL-28 melanoma",
    "TGI": "> 100 µM"
  },
  {
    "compound": "O=C1O/C(=C(\\Br)c2cccc3ccccc23)c2ccccc21",
    "targetSystem": "SK-MEL-28 melanoma",
    "TGI": "> 50.2 µM"
  },
  {
    "compound": "CCCCCCCCCCN(CCCCCCCCCC)CC(=O)c1ccc2cc(Br)c3ccccc3c2c1",
    "targetSystem": "SK-MEL-28 melanoma",
    "TGI": "3.32 µM"
  },
  {
    "compound": "Cn1c(=O)c2c(nc3n(Cc4ccccc4)c(=O)c(NCCBr)cn23)n(C)c1=O",
    "targetSystem": "SK-MEL-28 melanoma",
    "TGI": "> 100 µM"
  },
  {
    "compound": "CCOC(=O)N1CCN(c2ccc3c(C)cc(C)nc3n2)CC1",
    "targetSystem": "SK-MEL-28 melanoma",
    "TGI": "> 100 µM"
  },
  {
    "compound": "CN1CCCN(C)C1c1cc([N+](=O)[O-])ccc1O",
    "targetSystem": "SK-MEL-28 melanoma",
    "TGI": "82.3 µM"
  }
]

# lookup: TGI of CC(=O)OC1CC2C(C)(C)C(=O)C=C[C@]2(C)C2CCC3(C)C(c4ccoc4)C(=O)[C@H]4O[C@]43[C@]12C (some centres not stated)
32.7 µM

# lookup: TGI of CCOC(=O)/C(=C\c1ccc(N(C)C)cc1)S(=O)(=O)C(F)(F)C(F)(F)C(F)(F)C(F)(F)F
> 100 µM
